test system: uterine eosinophil peroxidase activity; assay: Uterine eosinophil peroxidase (EPO) assay, four day dosing; format: in vivo, Sprague Dawley rats; conditions: OVX rats, oral, daily for 4 days, dose 1 mg/kg
Provide the recorded Uterine EPO (Vmax) for the entries that follow.
Give bare numbers, in Vmax.

* CC(=O)N(CCOc1ccc(C(=O)c2c(-c3ccc(O)cc3)sc3cc(O)ccc23)cc1)C1CCCCC1 | 3.7
* CC(C)(C)C(=O)N1CCC(Oc2ccc(C(=O)c3c(-c4ccc(O)cc4)sc4cc(O)ccc34)cc2)CC1 | 3.8
* COc1ccc(-c2sc3cc(OC)ccc3c2C(=O)c2ccc(OCC(=O)N3CCCCC3)cc2)cc1 | 3.7

List Uterine EPO (Vmax) for every entry below, keeping the order given.
1. O=C(c1ccc(OCCNC(=O)C2CCCCC2)cc1)c1c(-c2ccc(O)cc2)sc2cc(O)ccc12
2. O=C(c1ccc(OCC(=O)N2CCCCC2)cc1)c1c(-c2ccc(O)cc2)sc2cc(O)ccc12
3. O=C(NCCOc1ccc(C(=O)c2c(-c3ccc(O)cc3)sc3cc(O)ccc23)cc1)NC1CCCCC1
4. O=C(c1ccc(OCCN2CCCC2=O)cc1)c1c(-c2ccc(O)cc2)sc2cc(O)ccc12
5. O=C(NCCOc1ccc(C(=O)c2c(-c3ccc(O)cc3)sc3cc(O)ccc23)cc1)c1ccccc1
6. CN(C)C(=O)COc1ccc(C(=O)c2c(-c3ccc(O)cc3)sc3cc(O)ccc23)cc1
7. CC(=O)NCCOc1ccc(C(=O)c2c(-c3ccc(O)cc3)sc3cc(O)ccc23)cc1
8. O=C(c1ccc(OCCN2CCCCC2=O)cc1)c1c(-c2ccc(O)cc2)sc2cc(O)ccc12

[2.6, 3.6, 2.5, 1.4, 3.6, 6.7, 0.7, 7.8]

Data request, read-out Uterine EPO (Vmax), for `O=C(c1ccc(OCCN2C(=O)CCC2=O)cc1)c1c(-c2ccc(O)cc2)sc2cc(O)ccc12`
1.7

----------
Provide the recorded Uterine Weight (% inc. OVX) for the entries that follow.
system: ovariectomized (OVX) rats; assay: Four day dosing regimen, post-menopausal rat model: wet uterine weight; type: in vivo, Sprague Dawley rats; details: OVX rats, oral, daily for 4 days, dose 1 mg/kg
Answers are plain numbers, in % inc. OVX.

Recorded results for 3 compounds are shown here.
• CN(C)C(=O)COc1ccc(C(=O)c2c(-c3ccc(O)cc3)sc3cc(O)ccc23)cc1 [Compound 12] = 15.4
• O=C(c1ccc(OCCN2C(=O)CCC2=O)cc1)c1c(-c2ccc(O)cc2)sc2cc(O)ccc12 [Compound 13] = 7.2
• O=C(c1ccc(OCCNC(=O)C2CCCCC2)cc1)c1c(-c2ccc(O)cc2)sc2cc(O)ccc12 [Compound 21] = −11.5

List Uterine Weight (% inc. OVX) for every entry below, keeping the order given.
1. CCCCN(C)C(=O)COc1ccc(C(=O)c2c(-c3ccc(O)cc3)sc3cc(O)ccc23)cc1 [Compound 10]
2. O=C(c1ccc(OCC(=O)N2CCCCC2)cc1)c1c(-c2ccc(O)cc2)sc2cc(O)ccc12 [Compound 9]
3. O=C(NCCOc1ccc(C(=O)c2c(-c3ccc(O)cc3)sc3cc(O)ccc23)cc1)c1ccccc1 [Compound 18]
4. O=C(c1ccc(OCCN2CCCC2=O)cc1)c1c(-c2ccc(O)cc2)sc2cc(O)ccc12 [Compound 6]
5. CC(C#N)Oc1ccc(C(=O)c2c(-c3ccc(O)cc3)sc3cc(O)ccc23)cc1 (stereo not shown) [Compound 16]

1: −6.7; 2: 6.5; 3: 25.7; 4: 15.4; 5: 27.4

----------
Test system: ovariectomized (OVX) rats
Assay: Four day dosing regimen, post-menopausal rat model: wet uterine weight
Type: in vivo, Sprague Dawley rats
Conditions: OVX rats, oral, daily for 4 days, dose 10 mg/kg
Procedure: Animals were dosed daily for 4 days. […] A blood sample was collected by cardiac puncture.
Marks after values point to notes of the source that are not given here.
Provide the recorded Uterine Weight (% inc. OVX) for the entries that follow.

Recorded results for 5 compounds are shown here.
• O=C(NCCOc1ccc(C(=O)c2c(-c3ccc(O)cc3)sc3cc(O)ccc23)cc1)NC1CCCCC1 = −32.7 % inc. OVX
• O=C(NCCOc1ccc(C(=O)c2c(-c3ccc(O)cc3)sc3cc(O)ccc23)cc1)c1ccccc1 = 12.6 % inc. OVX
• CCCCN(C)C(=O)COc1ccc(C(=O)c2c(-c3ccc(O)cc3)sc3cc(O)ccc23)cc1 = 38.0* % inc. OVX
• CC(C)(C)C(=O)N1CCCCC1COc1ccc(C(=O)c2c(-c3ccc(O)cc3)sc3cc(O)ccc23)cc1 (stereo not drawn) = 46.9* % inc. OVX
• O=C(c1ccc(OCCN2C(=O)CCC2=O)cc1)c1c(-c2ccc(O)cc2)sc2cc(O)ccc12 = −4.0 % inc. OVX

List Uterine Weight (% inc. OVX) for every entry below, keeping the order given.
1. N#CCOc1ccc(C(=O)c2c(-c3ccc(O)cc3)sc3cc(O)ccc23)cc1
2. CN(C)C(=O)COc1ccc(C(=O)c2c(-c3ccc(O)cc3)sc3cc(O)ccc23)cc1
3. O=C(c1ccc(OCCN2CCCC2=O)cc1)c1c(-c2ccc(O)cc2)sc2cc(O)ccc12
4. CC(=O)NCCOc1ccc(C(=O)c2c(-c3ccc(O)cc3)sc3cc(O)ccc23)cc1
5. O=C(c1ccc(OCC(=O)N2CCCCC2)cc1)c1c(-c2ccc(O)cc2)sc2cc(O)ccc12
6. CC(C#N)Oc1ccc(C(=O)c2c(-c3ccc(O)cc3)sc3cc(O)ccc23)cc1 (stereo not drawn)

1: 124.6* % inc. OVX; 2: 60.7* % inc. OVX; 3: 40.3* % inc. OVX; 4: 25.8* % inc. OVX; 5: 51.7* % inc. OVX; 6: 99.2* % inc. OVX

For the record `COc1ccc(-c2sc3cc(OC)ccc3c2C(=O)c2ccc(OCC(=O)N3CCCCC3)cc2)cc1` , what value of Uterine Weight (% inc. OVX) is listed for ovariectomized (OVX) rats?
8.4 % inc. OVX

----------
Provide the recorded Uterine EPO (Vmax) for the entries that follow.
tested on: uterine eosinophil peroxidase activity; experiment: Uterine eosinophil peroxidase (EPO) assay, four day dosing; type: in vivo, Sprague Dawley rats; conditions: OVX rats, oral, daily for 4 days, dose 10 mg/kg
Give bare numbers, in Vmax.

List Uterine EPO (Vmax) for every entry below, keeping the order given.
1. CC(C#N)Oc1ccc(C(=O)c2c(-c3ccc(O)cc3)sc3cc(O)ccc23)cc1 (stereo not drawn) [Compound 16]
2. CCCCN(C)C(=O)COc1ccc(C(=O)c2c(-c3ccc(O)cc3)sc3cc(O)ccc23)cc1 [Compound 10]
3. CC(=O)NCCOc1ccc(C(=O)c2c(-c3ccc(O)cc3)sc3cc(O)ccc23)cc1 [Compound 26]
4. O=C(c1ccc(OCC(=O)N2CCCCC2)cc1)c1c(-c2ccc(O)cc2)sc2cc(O)ccc12 [Compound 9]
5. O=C(c1ccc(OCCN2CCCCC2=O)cc1)c1c(-c2ccc(O)cc2)sc2cc(O)ccc12 [Compound 3]

23.4
17.0
13.6
32
8.9

----------
Provide the recorded Uterine EPO (Vmax) for the entries that follow.
tested on: uterine eosinophil peroxidase activity; assay: Uterine eosinophil peroxidase (EPO) assay, four day dosing; type: in vivo, Sprague Dawley rats; settings: OVX rats, oral, daily for 4 days, dose 1 mg/kg
Give bare numbers, in Vmax.

• CC(C)(C)C(=O)N1CCCCC1COc1ccc(C(=O)c2c(-c3ccc(O)cc3)sc3cc(O)ccc23)cc1 (stereo not shown) = 20.0

List Uterine EPO (Vmax) for every entry below, keeping the order given.
1. N#CCOc1ccc(C(=O)c2c(-c3ccc(O)cc3)sc3cc(O)ccc23)cc1
2. CC(C#N)Oc1ccc(C(=O)c2c(-c3ccc(O)cc3)sc3cc(O)ccc23)cc1 (stereo not shown)
3. CCCCN(C)C(=O)COc1ccc(C(=O)c2c(-c3ccc(O)cc3)sc3cc(O)ccc23)cc1

[2.4, 3.9, 3.1]

----------
Provide the recorded inhibition in vivo at 0.1 mg/kg for the entries that follow.
system: ovariectomized (OVX) rats; experiment: Serum cholesterol analysis, four day dosing; type: in vivo, Sprague Dawley rats; conditions: Rattus norvegicus, po, 96 h, OVX rats, oral, daily for 4 days, dose 0.1 mg/kg; read-out: Serum Cholesterol (% dec. OVX)
One number for each entry, in %.

• O=C(c1ccc(OCCNC(=O)C2CCCCC2)cc1)c1c(-c2ccc(O)cc2)sc2cc(O)ccc12 = 9.3

List inhibition in vivo at 0.1 mg/kg for every entry below, keeping the order given.
1. O=C(NCCOc1ccc(C(=O)c2c(-c3ccc(O)cc3)sc3cc(O)ccc23)cc1)c1ccccc1
2. O=C(c1ccc(OCC(=O)N2CCCC2)cc1)c1c(-c2ccc(O)cc2)sc2cc(O)ccc12
3. COc1ccc(-c2sc3cc(OC)ccc3c2C(=O)c2ccc(OCC(=O)N3CCCCC3)cc2)cc1
4. CC(C#N)Oc1ccc(C(=O)c2c(-c3ccc(O)cc3)sc3cc(O)ccc23)cc1 (stereo not drawn)
5. CC(C)(C)C(=O)N1CCCCC1COc1ccc(C(=O)c2c(-c3ccc(O)cc3)sc3cc(O)ccc23)cc1 (stereo not drawn)

1. -10.8
2. 17.4
3. 3.4
4. 3.4
5. 22.1

# credit: patent US6444688B1
